Ref: PubChem BioAssay (NCI)

- Protocol Description: NCI Yeast Anticancer Drug Screen. Data for the sgs1 mgt1 strain (AID 161)
- Experimental Parameters: S. cerevisiae sgs1 mgt1 strain, at 50.0 µM (retest, dose inferred, filed as 5.0)
Compounds without any hit were thinned out: in the full panel of roughly 79,000, 15% have a hit. Calls of active or inactive are those of the source. Cut-off read from the data, not from the text of the source: active = growth inhibition above about 70%; inactive = the rest.
Choose one outcome from this list and give only that: active, inactive

As a guide, the following entries are already answered.
molecule=O=C(Nc1ccc(Cl)c(Cl)c1)Nc1ccccc1O label=inactive
molecule=c1ccc2sc(SSN3CC4CCC(CC4)C3)nc2c1 label=active
molecule=NC(=S)N/N=C\c1nccc2c(C(F)(F)F)cccc12 label=active
molecule="COc1ccc2c(c1OC)OCC(CN(C)C)C2=O (configuration not stated)" label=active
molecule=O=C(Cc1nc2cc(Cl)c(Cl)cc2nc1CC(=O)c1ccccc1)c1ccccc1 label=active
molecule=On1c(-c2ccccc2)nc2ccccc2c1=S label=active

Could you now look at the following molecule, please?
Returns: the outcome recorded for `CSC(SC)=C(C#N)C(=O)Nc1cccc(Cl)c1` in this assay.
active
